// reported Neutralizing activity (%) Mean at 0.2057613 µg/ml per item
Target: full length spike (S) protein of SARS-CoV-2 (SARS-CoV-2, UniProt P0DTC2 14-1273)
Test: cell-based or functional assay
The answer should read as a number with its unit following.

These recorded examples may help you get a feel for the data.
[Q] Form field: reported Neutralizing activity (%) Mean at 0.2057613 µg/ml of P2B-2F6 (antibody, V domains shown) VH: QVQLQESGPGLVKPSETLSLTCTVSGYSISSGYYWGWIRQPPGKGLEWIGSIYHSGSTYYNPSLKTRVTISVDTSKNQFSLKLSSVTAADTAVYYCARAVVGIVVVPAAGRRAFDIWGQGTMVTVSS VL: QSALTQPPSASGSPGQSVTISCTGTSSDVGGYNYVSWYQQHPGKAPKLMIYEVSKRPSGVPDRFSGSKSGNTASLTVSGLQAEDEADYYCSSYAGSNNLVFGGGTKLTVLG
[A] 67.1%

[Q] Form field: reported Neutralizing activity (%) Mean at 0.2057613 µg/ml of P2A-1A8 (antibody, V domains shown) VH: EVQLVESGGDLVQPGRSLRLSCAASGFAFDDYAMHWVRQAPGKGLEWVSGSTWNSGTIAYADSVKGRFTISRDNAKKSLYLQMNSLRTEDTALYYCAKLGGYSDYDYPRPGDHYYGLDVWGQGTTVTVSS VL: QSALTQPASVSGSPGQSITISCTGTSSDVGSYNLVSWYQQHPGKVPKLLIYDVNKRPSGISNRFSGSKSGNTASLTISGLQAEDEADYYCRSYTDSNTYVFGTGTKVTVLG
[A] 14.1%

[Q] Form field: reported Neutralizing activity (%) Mean at 0.2057613 µg/ml of P2A-1A9 (antibody, V domains shown) VH: EVQLVESGGGLVQPGRSLRLSCAASGFTFDDYAMHWVRQVPGKGLEWVSGISWNGGIIGYADSVKGRFTISRDNAKTSLYLQMNSLRAEDTALYYCAKVAGRGDYDYYYGMDVWGQGTTVTVSS VL: QSVLTQPPSVSGAPGQRVTISCTGSSSNIGAGYDVHWYQQLPGTAPKLLIYGNNNRPSGVPDRFSGSKSGTSASLAITGLQAEDEADYYCQSYDSSLSGSVFGGGTKLTVLG
[A] 15.1%

More entries:
[Q] Form field: reported Neutralizing activity (%) Mean at 0.2057613 µg/ml of P2B-2G11 (antibody, V domains shown) VH: EVQLVESGGGLVQPGRSLRLSCAASGFTFDDYAMHWVRQAPGKGLEWVSGISWNGGIIGYADSVKGRFTISRDNAKTSLYLQMNSLKPEDTALYYCAKVAGRGDYDYYYGMDVWGQGTTVTVSS VL: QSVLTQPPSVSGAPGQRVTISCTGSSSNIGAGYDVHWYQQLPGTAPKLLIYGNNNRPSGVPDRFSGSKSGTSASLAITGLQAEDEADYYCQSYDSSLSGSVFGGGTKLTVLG
[A] 12.8%

[Q] Form field: reported Neutralizing activity (%) Mean at 0.2057613 µg/ml of P2A-1B3 (antibody, V domains shown) VH: EVQLVESGGGLVQPGGSLRLSCVASGFSFNRYSMNWLRQTPRKGLEWLSYISASGNTIYYADSVRGRFTTSRDNAKNTLYLQMNSLRDDDTAVYFCARPAMVREGTYNWFDPWGQGTLVTVSS VL: EIVLTQSPGTLSLSPGERATLSCRASQSVSNDYLAWYQQKPGQAPRLLIYYASSRATGIPDRFSGSGSGTDFTLTISRLEPGDSAVYYCQQYGDSPPITFGQGTRLEIKR
[A] 10.2%

[Q] Form field: reported Neutralizing activity (%) Mean at 0.2057613 µg/ml of P2B-2G4 (antibody, V domains shown) VH: QVQLVESGGGVVQPGRSLRLSCAASGFTFSSYGMHWVRQAPGKGLEWVAVIWYDGSNKYYADSVKGRFTISRDNSKNTLYLQMNSLRAEDTAVYYCARGAAMVWLDYWGQGTLVTVSS VL: QSALTQPRSVSGSPGQSVTISCTGTSSDVGGYNYVSWYQQHPGKAPKLMIYDVSKRPSGVPDRFSGSKSGNTASLTISGLQAEDEADYYCCSYAGSYTFVVFGGGTKLTVLG
[A] 10.4%
